// pIC50 lookup, one value per entry
- experimental.system: AChE hRBC (Homo sapiens)
- Sequence (P22303 32-617 isoform P22303-2 limits assumed): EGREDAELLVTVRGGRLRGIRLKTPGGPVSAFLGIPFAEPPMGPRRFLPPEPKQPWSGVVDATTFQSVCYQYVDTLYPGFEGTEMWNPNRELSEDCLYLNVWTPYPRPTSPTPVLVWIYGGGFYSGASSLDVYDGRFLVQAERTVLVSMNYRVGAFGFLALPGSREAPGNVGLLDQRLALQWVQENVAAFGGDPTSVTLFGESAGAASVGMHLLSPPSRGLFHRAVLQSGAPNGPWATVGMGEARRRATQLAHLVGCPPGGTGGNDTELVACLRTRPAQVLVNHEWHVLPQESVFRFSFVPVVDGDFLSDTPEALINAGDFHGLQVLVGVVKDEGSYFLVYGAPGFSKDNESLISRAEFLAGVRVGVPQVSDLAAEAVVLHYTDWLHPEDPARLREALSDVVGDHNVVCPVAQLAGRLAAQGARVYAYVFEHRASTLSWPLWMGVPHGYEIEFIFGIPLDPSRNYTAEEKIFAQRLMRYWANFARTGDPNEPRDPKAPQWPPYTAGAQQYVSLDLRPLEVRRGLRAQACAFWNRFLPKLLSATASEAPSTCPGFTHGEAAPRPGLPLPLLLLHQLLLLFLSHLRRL
Convention used: pIC50 is expressed as -log10 of the molar concentration.

CN(C)CC(C)(C)c1cccc(OC(=O)N(C)c2ccccc2)c1 [Ex. 25] | 5.77

Asked: Value wanted: pIC50 (AChE hRBC (Homo sapiens)) of entry CN(C)CC(C)(C)c1cccc(OC(=O)N(C)C2CCCCC2)c1 [Ex. 40]
Given back: 6.74

Asked: Value wanted: pIC50 (AChE hRBC (Homo sapiens)) of entry CN(C)CC(C)(C)c1cccc(OC(=O)Nc2ccccc2)c1 [Ex. 19]
Given back: 7.00

Asked: Value wanted: pIC50 (AChE hRBC (Homo sapiens)) of entry Cc1cccc(NC(=O)Oc2cccc(C(C)(C)CN(C)C)c2)c1 [Ex. 21]
Given back: 6.22

Asked: Value wanted: pIC50 (AChE hRBC (Homo sapiens)) of entry CN(C)CC(C)(C)c1cccc(OC(=O)NCCCCCCCCN2CCOCC2)c1 [Ex. 1]
Given back: 6.80

Asked: Value wanted: pIC50 (AChE hRBC (Homo sapiens)) of entry CCN(C(=O)Oc1cccc(C(C)(C)CN(C)C)c1)c1ccc(OC)cc1 [Ex. 36]
Given back: 5.96

Asked: Value wanted: pIC50 (AChE hRBC (Homo sapiens)) of entry C[C@H]1CN(CCCCCCCCNC(=O)Oc2cccc(C(C)(C)CN(C)C)c2)C[C@H](C)O1 (relative stereo) [Ex. 3]
Given back: 6.70

----------
- procedure.summary: Acute toxicity (single administration) in rat
- test.context: in vivo, po, os, read-out: Toxicity tests (LD50), rat os
// LD50 lookup, one value per entry

CN(C)CC(C)(C)c1cccc(OC(=O)N(C)c2ccccc2)c1 [Ex. 25] | 56 mg/kg

Asked: State the recorded LD50 for this entry: CN(C)CC(C)(C)c1cccc(OC(=O)N(C)C2CCCCC2)c1 [Ex. 40]
Given back: > 40 mg/kg

Asked: State the recorded LD50 for this entry: COc1ccc(N(C)C(=O)Oc2cccc(C(C)(C)CN(C)C)c2)cc1 [Ex. 35]
Given back: 40 mg/kg

Asked: State the recorded LD50 for this entry: CCCCCCCNC(=O)Oc1ccc2c(c1)[C@]1(C)CCN(C)[C@@H]1N2C [Eptastigmine, heptylcarbamic ester of the eseroline, reference compound]
Given back: 23 mg/kg

Asked: State the recorded LD50 for this entry: CN(C)CC(C)(C)c1cccc(OC(=O)N(C)c2cccc(F)c2)c1 [Ex. 38]
Given back: > 40 mg/kg

Asked: State the recorded LD50 for this entry: CN(C)CC(C)(C)c1cccc(OC(=O)NCCCCCCCCN2CCOCC2)c1 [Ex. 1]
Given back: 33 mg/kg

----------
// pIC50 lookup, one value per entry
- experimental.system: BuChE hserum (Homo sapiens)
- Sequence (P06276 29-602): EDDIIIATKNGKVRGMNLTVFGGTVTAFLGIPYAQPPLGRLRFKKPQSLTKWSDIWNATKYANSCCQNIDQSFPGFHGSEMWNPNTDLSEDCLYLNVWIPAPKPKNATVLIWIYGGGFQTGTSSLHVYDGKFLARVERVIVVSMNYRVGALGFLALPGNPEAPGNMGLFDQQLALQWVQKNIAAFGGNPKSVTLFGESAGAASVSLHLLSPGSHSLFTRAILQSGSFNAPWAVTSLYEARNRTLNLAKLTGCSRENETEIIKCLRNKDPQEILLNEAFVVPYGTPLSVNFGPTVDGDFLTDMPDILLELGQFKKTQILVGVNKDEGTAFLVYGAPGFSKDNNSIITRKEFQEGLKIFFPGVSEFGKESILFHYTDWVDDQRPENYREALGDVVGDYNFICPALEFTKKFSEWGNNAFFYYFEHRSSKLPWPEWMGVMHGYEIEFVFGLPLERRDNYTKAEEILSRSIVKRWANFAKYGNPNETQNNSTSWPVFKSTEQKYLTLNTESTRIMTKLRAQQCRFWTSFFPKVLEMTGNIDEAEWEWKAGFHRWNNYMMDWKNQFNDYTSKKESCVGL
- procedure.summary: Inhibition of butyrylcholinesterase from human serum (Ellman method)
Convention used: pIC50 is expressed as -log10 of the molar concentration.

Answered examples (5):
CN(C)CC(C)(C)c1cccc(OC(=O)NCCCCCCCCN2CCOCC2)c1 | 7.80
CN(Cc1ccccc1)CC(C)(C)c1cccc(OC(=O)NCCCCCCCCN2CCOCC2)c1 | 8.15
COc1cccc(NC(=O)Oc2cccc(C(C)(C)CN(C)C)c2)c1 | 6.22
CC(CN(C)C)c1cccc(OC(=O)NCCCCCCCCN2CCOCC2)c1 (centres unmarked) | 7.85
CN(C)CC(C)(C)c1cccc(OC(=O)N(C)c2ccc(Cl)cc2)c1 | 5.10

Asked: State the recorded pIC50 for this entry: `CCCCN(C(=O)Oc1cccc(C(C)(C)CN(C)C)c1)c1ccccc1`
Given back: 4.15

Asked: State the recorded pIC50 for this entry: `CN(C)CC(C)(C)c1cccc(OC(=O)Nc2ccccc2)c1`
Given back: 6.64

Asked: State the recorded pIC50 for this entry: C[C@H]1CN(CCCCCCCCNC(=O)Oc2cccc(C(C)(C)CN(C)C)c2)C[C@H](C)O1 (relative stereo)
Given back: 7.70

Asked: State the recorded pIC50 for this entry: `COc1cc2nc(N3CCN(C(=O)CCCCCCCNC(=O)Oc4cccc(C(C)(C)CN(C)C)c4)CC3)nc(N)c2cc1OC`
Given back: 7.30

Asked: State the recorded pIC50 for this entry: `CCN(C(=O)Oc1cccc(C(C)(C)CN(C)C)c1)c1ccc(OC)cc1`
Given back: 4.68
